Values from patent US20180072804A1

Molecular target: T1, cynomolgus TIM-3 on isolated cyno CD14+ monocytes (cynomolgus monkey, UniProt A0A2K5U3G7 22-294)
T1 construct: whole, on cells; also called cyno monocytes expressing TIM-3
T1 sequence: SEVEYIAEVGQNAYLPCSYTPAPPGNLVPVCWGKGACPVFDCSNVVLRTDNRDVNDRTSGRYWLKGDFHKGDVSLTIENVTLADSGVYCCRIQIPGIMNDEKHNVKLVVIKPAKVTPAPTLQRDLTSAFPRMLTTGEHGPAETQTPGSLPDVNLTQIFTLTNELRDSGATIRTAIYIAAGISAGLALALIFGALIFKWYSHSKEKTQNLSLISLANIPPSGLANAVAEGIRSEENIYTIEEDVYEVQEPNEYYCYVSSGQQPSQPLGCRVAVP
Assay: FACS, cyno CD14+ monocytes, cyno2 (17435M)
Binary classification by Specific Binding [MFI], with 200 MFI as an inclusive lower bound for True; all other cases are False.

Input: Item anti-TIM3 antibody Tim3_0016 variant (Tim3_0018) (antibody, V domains shown, Mouse monoclonal from hybridoma; also called TIM3-0016 variant (0018); Tim3_0016 variant 0018-A488) VH: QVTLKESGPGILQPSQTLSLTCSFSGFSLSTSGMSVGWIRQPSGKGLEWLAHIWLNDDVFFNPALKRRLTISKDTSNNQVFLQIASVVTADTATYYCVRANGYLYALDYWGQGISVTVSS VL: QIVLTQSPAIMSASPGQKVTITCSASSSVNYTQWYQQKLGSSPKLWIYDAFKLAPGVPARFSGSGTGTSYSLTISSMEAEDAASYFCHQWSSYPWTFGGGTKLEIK with Specific Binding [MFI] of 200 MFI or above?
Output: True

Input: Item anti-TIM3 antibody Tim3_0038 (antibody, V domains shown, Mouse monoclonal from hybridoma) VH: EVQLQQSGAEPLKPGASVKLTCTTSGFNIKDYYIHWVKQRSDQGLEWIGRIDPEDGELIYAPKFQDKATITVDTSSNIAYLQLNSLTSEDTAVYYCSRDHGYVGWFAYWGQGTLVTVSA VL: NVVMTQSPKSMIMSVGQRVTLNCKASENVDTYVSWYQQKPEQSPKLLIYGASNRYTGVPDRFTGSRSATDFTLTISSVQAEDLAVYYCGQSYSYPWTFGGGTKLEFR with Specific Binding [MFI] of 200 MFI or above?
Output: False

Input: Item anti-TIM3 antibody Tim3_0026 (antibody, V domains shown, Mouse monoclonal from hybridoma) VH: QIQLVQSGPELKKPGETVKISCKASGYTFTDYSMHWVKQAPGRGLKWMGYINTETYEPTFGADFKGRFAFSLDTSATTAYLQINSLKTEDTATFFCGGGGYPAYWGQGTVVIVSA VL: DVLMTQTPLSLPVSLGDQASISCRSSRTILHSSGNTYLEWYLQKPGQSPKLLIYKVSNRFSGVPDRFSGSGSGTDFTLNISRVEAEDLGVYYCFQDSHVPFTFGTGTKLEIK with Specific Binding [MFI] of 200 MFI or above?
Output: False

Input: Item anti-TIM3 antibody Tim3_0016 (antibody, V domains shown, Mouse monoclonal from hybridoma; also called clone 0016; Tim3_0016-A488) VH: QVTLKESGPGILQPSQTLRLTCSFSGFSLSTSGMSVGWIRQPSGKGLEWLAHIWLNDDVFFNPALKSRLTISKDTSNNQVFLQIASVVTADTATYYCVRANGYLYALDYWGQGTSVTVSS VL: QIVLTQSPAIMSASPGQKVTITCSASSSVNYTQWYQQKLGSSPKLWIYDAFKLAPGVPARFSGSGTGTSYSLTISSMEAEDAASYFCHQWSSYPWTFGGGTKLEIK with Specific Binding [MFI] of 200 MFI or above?
Output: False

Input: Item anti-TIM3 antibody Tim3_0028 (antibody, V domains shown, Mouse monoclonal from hybridoma) VH: EVQLQQSVAELVRPGASVKLSCTASGFNIKTTYMHWVKQRPEQGLEWIGRIDPADDNTKYAPKFQGKATITADTSSNTAYLQLSSLTSEDAAIYYCVRDFGYVAWFAYWGQGTLVTFSA VL: NIVMTPTPKFLPVSSGDRVTMTCRASQSVDNYVAWYQQKPGQSPKLLIYYASNRYIGVPDRFTGSGSGTDFTFTISSVQVEDLAVYFCQQHYSSPYTFGSGTKLEIK with Specific Binding [MFI] of 200 MFI or above?
Output: True

Input: Item anti-TIM3 antibody Tim3_0030 (antibody, V domains shown, Mouse monoclonal from hybridoma) VH: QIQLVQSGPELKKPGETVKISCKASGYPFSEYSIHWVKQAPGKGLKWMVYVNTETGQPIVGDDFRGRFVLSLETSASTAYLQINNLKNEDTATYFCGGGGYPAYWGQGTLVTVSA VL: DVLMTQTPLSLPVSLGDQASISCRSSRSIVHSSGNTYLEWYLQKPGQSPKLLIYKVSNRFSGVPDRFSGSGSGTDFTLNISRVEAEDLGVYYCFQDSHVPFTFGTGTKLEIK with Specific Binding [MFI] of 200 MFI or above?
Output: False
